System: Klebsiella pneumoniae
ASSAY INFO: Antibacterial activity against KPC-2 producing Klebsiella pneumoniae isolate 209735 after 18 hrs by CLSI broth microdilution method
Type: functional
CONDITION LABEL: isolate 209735, 18 h
MEASURED PROPERTY: MIC (µg/mL)
Lab book: enter the figure in µg/mL, no units written.

Answered examples (9):
CC(C)C(O/N=C(\C(=O)N[C@@H]1C(=O)N(S(=O)(=O)O)C12CCCC2)c1csc(N)n1)c1cc(=O)c(O)cn1O (some centres undefined)	2
CC(C)C(O/N=C(\C(=O)N[C@@H]1C(=O)N(S(=O)(=O)O)[C@@H]1CO)c1csc(N)n1)c1cc(=O)c(O)cn1O (some centres undefined)	16
CC(C)C(O/N=C(\C(=O)NC1C(=O)N(S(=O)(=O)O)C12CCOCC2)c1csc(N)n1)c1cc(=O)c(O)cn1O (centres undefined)	4
CC(C)C(O/N=C(\C(=O)N[C@@H]1C(=O)N(S(=O)(=O)O)[C@@H]1COS(=O)(=O)O)c1csc(N)n1)c1cc(=O)c(O)cn1O (some centres undefined)	2
CC(C)C(O/N=C(\C(=O)NC1C(=O)N(S(=O)(=O)O)C12CCCC2)c1csc(N)n1)c1cc(=O)c(O)cn1O (centres undefined)	4
CC(C)C(O/N=C(\C(=O)N[C@@H]1C(=O)N(S(=O)(=O)O)[C@@H]1Cn1cc(COCc2cc(=O)c(O)cn2O)nn1)c1csc(N)n1)c1cc(=O)c(O)cn1O (some centres undefined)	2
Cc1nnc(SC[C@@H]2[C@H](NC(=O)/C(=N\OC(c3cc(=O)c(O)cn3O)C(C)C)c3csc(N)n3)C(=O)N2S(=O)(=O)O)s1 (some centres undefined)	1
CC(C)C(O/N=C(\C(=O)N[C@@H]1C(=O)N(S(=O)(=O)O)[C@@H]1CCl)c1csc(N)n1)c1cc(=O)c(O)cn1O (some centres undefined)	32
Cc1csc(SC[C@@H]2[C@H](NC(=O)/C(=N\OC(c3cc(=O)c(O)cn3O)C(C)C)c3csc(N)n3)C(=O)N2S(=O)(=O)O)n1 (some centres undefined)	2

Continue with the next compound.
**Query** Return reported MIC; argument: CC(C)C(O/N=C(\C(=O)N[C@@H]1C(=O)N(S(=O)(=O)O)[C@@H]1CN1CCNC1=O)c1csc(N)n1)c1cc(=O)c(O)cn1O (some centres undefined)
**Result** 16

====

System: Escherichia coli
ASSAY INFO: Antibacterial activity against extended-spectrum beta-lactamase producing Escherichia coli isolate 208687 after 18 hrs by CLSI broth microdilution method
Type: functional
CONDITION LABEL: isolate 208687, 18 h
Listed here are compounds together with their documented MIC.
// note: answer is a bare numeric in µg/mL

CC(C)C(O/N=C(\C(=O)N[C@@H]1C(=O)N(S(=O)(=O)O)[C@@H]1CSc1nc(=O)c(O)nn1C)c1csc(N)n1)c1cc(=O)c(O)cn1O (some centres not stated)	4
CC(C)C(O/N=C(\C(=O)N[C@@H]1C(=O)N(S(=O)(=O)O)[C@@H]1Cn1cc(COCc2cc(=O)c(O)cn2O)nn1)c1csc(N)n1)c1cc(=O)c(O)cn1O (some centres not stated)	16
CC(C)C(O/N=C(\C(=O)N[C@@H]1C(=O)N(S(=O)(=O)O)[C@@H]1CN1CCNCC1)c1csc(N)n1)c1cc(=O)c(O)cn1O (some centres not stated)	2

**Query** If you can, please state the reported MIC value of CC(C)C(O/N=C(\C(=O)NC1C(=O)N(S(=O)(=O)O)C12CCOCC2)c1csc(N)n1)c1cc(=O)c(O)cn1O (configuration not stated) .
**Result** 4

**Query** Moving on to CC(C)C(O/N=C(\C(=O)NC1C(=O)N(S(=O)(=O)O)C12CCC2)c1csc(N)n1)c1cc(=O)c(O)cn1O (configuration not stated)
**Result** 1

**Query** Moving on to CC(C)C(O/N=C(\C(=O)N[C@@H]1C(=O)N(S(=O)(=O)O)[C@@H]1CO)c1csc(N)n1)c1cc(=O)c(O)cn1O (some centres not stated)
**Result** 64

Just for reference, ChEMBL document CHEMBL4152188 is where these values come from.
